// data source = PubChem BioAssay AID1159580

measurementNotes: chemical genetic growth profiling, strain panel (AID 1159580);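 note: tested at 20 µM; growth read once vehicle control cultures reached saturation at 30 °C; 1 = growth at the plate median or of vehicle wells; lower values mean less growth of the strain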
runParameters: S. cerevisiae deletion strains, growth OD, locus YOL147C, strain pex11
The campaign covered roughly 5,500 compounds. About 2,000 (36%) were called active. Roughly 18% stayed inconclusive and do not appear here. Cut-off read from the data, not from the text of the source: active = normalized growth mostly below about 0.91 (no sharp cut-off); inconclusive = no clear call, values can overlap the other calls; inactive = mostly above about 0.92. Some of the results follow.
Assign a class; possible classes are 1 for active, -1 for inactive

Example results:
>>> classname("O[C@H]1C=C2CCN3Cc4cc5c(cc4C(C23)[C@@H]1O)OCO5 (stereo not given in full)")
1
>>> classname("OCCN(CCO)c1nc(N2CCCCC2)c2nc(N(CCO)CCO)nc(N3CCCCC3)c2n1")
-1
>>> classname("COc1c(O)cc2oc3cc(O)c(CC=C(C)C)c(O)c3c(=O)c2c1CC=C(C)C")
1
>>> classname("CCC1(c2ccc(N)cc2)CCC(=O)NC1=O (stereo not given)")
-1
>>> classname("CN1C2CC3C[C@H]1C(O3)C2O (stereo not given in full)")
-1
>>> classname("S=C=NCc1ccccc1")
1
>>> classname("CN1CCc2cc3c(cc2C1O)OCO3 (stereo not given)")
-1
>>> classname("N=c1nc(N2CCCCC2)cc(N)n1O")
-1
>>> classname("c1ccc(CN(CC2=NCCN2)c2ccccc2)cc1")
-1
>>> classname("c1ccc(CC2=NCCN2)cc1")
1

Lab note: next compound to report on.
Outcome logged for COc1ccc2cc1Oc1ccc(cc1)C[C@H]1c3cc(c(OC)cc3CCN1C)Oc1c(OC)c(OC)cc3c1[C@H](C2)N(C)CC3 in this assay:
-1
